# PROTOCOL_NOTES: Metabolic stability in mouse liver microsomes
# Type: ADME, Microsome
ENDPOINT_NAME: half-life (min)

INSERT INTO results (molecule, unit_info, measurement) VALUES
  ('Cn1cncc1CN1CC(N(CCn2cccc2)S(=O)(=O)c2ccccn2)Cc2cc(C#N)ccc21 (stereo not given)', 'min', 4.9),
  ('Cn1cnc(S(=O)(=O)N(Cc2ccc(C(F)(F)F)o2)C2Cc3cc(C#N)ccc3N(Cc3cncn3C)C2)c1 (stereo not given)', 'min', 3.4),
  ('Cn1cnc(S(=O)(=O)N(CC(=O)NC(C)(C)C)C2Cc3cc(-c4ccccc4)ccc3N(Cc3cncn3C)C2)c1 (stereo not given)', 'min', 98),
  ('CC(C)COC(=O)N1CCC(CN(C2Cc3cc(C#N)ccc3N(Cc3cncn3C)C2)S(=O)(=O)c2ccccn2)CC1 (stereo not given)', 'min', 5.1),
  ('COC(=O)N1CCC(CN(C2Cc3cc(C#N)ccc3N(Cc3cncn3C)C2)S(=O)(=O)c2ccccn2)CC1 (stereo not given)', 'min', 5.8);
